Measured inhibition by item
Tested Target: Monoacylglycerol lipase ABHD6 (Mus musculus) (UniProt Q8R2Y0)
Sequence (Q8R2Y0 whole entry, looked up): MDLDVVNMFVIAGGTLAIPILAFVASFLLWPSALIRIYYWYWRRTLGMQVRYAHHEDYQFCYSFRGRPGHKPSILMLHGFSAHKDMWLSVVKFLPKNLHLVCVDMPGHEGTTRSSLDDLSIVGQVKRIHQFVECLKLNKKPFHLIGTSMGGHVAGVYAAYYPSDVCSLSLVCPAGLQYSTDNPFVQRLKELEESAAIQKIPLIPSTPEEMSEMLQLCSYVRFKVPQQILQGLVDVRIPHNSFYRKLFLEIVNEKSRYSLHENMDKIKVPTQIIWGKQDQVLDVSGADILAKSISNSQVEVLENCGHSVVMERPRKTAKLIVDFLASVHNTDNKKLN
Procedure Summary: serine hydrolase off-target inhibition in mouse brain, late-stage follow-up, selectivity assay for DAGLb inhibitor project, biochemical, gel-based competitive ABPP, mouse brain membrane, set 1 (AID 602311)
Condition Set: gel-based competitive ABPP fluorescence, at 10 µM, stronger effect = higher value
Write the answer as a number in %, unit excluded.

Molecule | Reported Measurement
O=C(N1CCCCC1Cc1ccccc1)n1cc(-c2ccc(-c3cccc(C(F)(F)F)c3)cc2)nn1 (configuration not stated) | 85

Data request: Quick one: inhibition for O=C(N1CCCCC1Cc1ccccc1)n1cc(-c2ccccc2-c2ccccc2)nn1 (configuration not stated) ?
Data returned: 80

Data request: Similarly, O=C(N1CCCCC1Cc1ccccc1)n1cc(-c2ccc(-c3ccccc3C(F)(F)F)cc2)nn1 (configuration not stated) ?
Data returned: 80

* * *

Test system: MAGL
Procedure Summary: serine hydrolase off-target inhibition in mouse brain, late-stage follow-up, selectivity assay for DAGLb inhibitor project, biochemical, gel-based competitive ABPP, mouse brain membrane, set 1 (AID 602311)
Condition Set: gel-based competitive ABPP fluorescence, at 10 µM, stronger effect = higher value
Test Readout: inhibition (%)
Field format: number, assumed %, no unit text.

Example results:
Compound | Unit Tag | inhibition
O=C(N1CCCCC1Cc1ccccc1)n1cc(-c2ccc(-c3ccoc3)cc2)nn1 (centres undefined) | % | 10
O=C(N1CCCCC1Cc1ccccc1)n1cc(-c2ccc(-c3ccccc3C(F)(F)F)cc2)nn1 (centres undefined) | % | 1
O=C(N1CCCCC1Cc1ccccc1)n1cc(-c2cc(F)cc(F)c2)nn1 (centres undefined) | % | 95
O=C(N1CCCCC1c1ccccc1)n1cc(C(O)(c2ccccc2)c2ccccc2)nn1 (centres undefined) | % | 0
O=C(N1CCCCC1Cc1ccccc1)n1cc(-c2ccc(OC(F)(F)F)cc2)nn1 (centres undefined) | % | 40
CC(C)CN(CCc1ccccc1)C(=O)n1cc(-c2ccc(OC(F)(F)F)cc2)nn1 | % | 0

Data request: For the compound shown here, O=C(c1ccc(-c2cn(C(=O)N3CCCCC3Cc3ccccc3)nn2)cc1)N1CCCCC1 (centres undefined) , give the reported inhibition.
Data returned: 0

Data request: Lookup O=C(N1CCCCC1Cc1ccccc1)n1cc(-c2ccc(-c3ccccc3Cl)cc2)nn1 (centres undefined)
Data returned: 10

Data request: Then what about the compound O=C(N1CCCCC1Cc1ccccc1)n1cc(-c2ccc(Br)cc2)nn1 (centres undefined) ?
Data returned: 90

Data request: Again, but for CC(C)(C)OC(=O)NCCCCCN(CCc1ccccc1)C(=O)n1cc(-c2ccc(OC(F)(F)F)cc2)nn1
Data returned: 10

Data request: Similarly, O=C(N(CCc1ccccc1)Cc1ccco1)n1cc(-c2ccc(OC(F)(F)F)cc2)nn1 ?
Data returned: 10

Data request: Subsequent entry: Cc1ccccc1-c1ccc(-c2cn(C(=O)N3CCCCC3Cc3ccccc3)nn2)cc1 (centres undefined)
Data returned: 0

Data request: Similarly, O=C(N1CCCCC1Cc1ccccc1)n1cc(-c2ccc(-c3ccc4c(c3)OCO4)cc2)nn1 (centres undefined) ?
Data returned: 0

Data request: Now the same for O=C(N1CCCCC1Cc1ccccc1)n1ncc(-c2ccc(OC(F)(F)F)cc2)n1 (centres undefined)
Data returned: 0

* * *

In this section we review reported inhibition values for a set of compounds.
Tested Target: UniProtKB P97823
Sequence (P97823 whole entry, looked up): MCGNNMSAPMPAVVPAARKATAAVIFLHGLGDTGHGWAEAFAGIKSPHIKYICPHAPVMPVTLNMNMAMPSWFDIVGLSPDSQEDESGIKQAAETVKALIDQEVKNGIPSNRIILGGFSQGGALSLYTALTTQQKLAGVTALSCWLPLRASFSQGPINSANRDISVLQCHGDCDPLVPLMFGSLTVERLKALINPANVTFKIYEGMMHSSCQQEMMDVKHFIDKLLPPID
Procedure Summary: serine hydrolase off-target inhibition in mouse brain, late-stage follow-up, selectivity assay for DAGLb inhibitor project, biochemical, gel-based competitive ABPP, mouse brain membrane, set 1 (AID 602311)
Condition Set: gel-based competitive ABPP fluorescence, LYPLA1, at 10 µM, stronger effect = higher value
Give the value in % but do not write % after it.

Compound | Unit Tag | inhibition
O=C(N(CCc1ccccc1)Cc1ccco1)n1cc(-c2ccc(OC(F)(F)F)cc2)nn1 | % | 0
CC(C)CN(CCc1ccccc1)C(=O)n1cc(-c2ccc(OC(F)(F)F)cc2)nn1 | % | 0
O=C(N1CCCCC1Cc1ccccc1)n1cc(-c2cccc(-c3ccccc3)c2)nn1 (configuration not stated) | % | 0

Data request: I'd like to know its inhibition. The compound in question is O=C(c1ccc(-c2cn(C(=O)N3CCCCC3Cc3ccccc3)nn2)cc1)N1CCCCC1 (configuration not stated)
Data returned: 25

Data request: // query: O=C(N1CCCCC1Cc1ccccc1)n1cc(-c2ccccc2-c2ccccc2)nn1 (configuration not stated)
Data returned: 10

Data request: Try O=C(N1CCCCC1Cc1ccccc1)n1cc(-c2ccc(-c3ccccc3Cl)cc2)nn1 (configuration not stated) next.
Data returned: 0

Data request: Same question, O=C(N1CCCCC1Cc1ccccc1)n1cc(-c2ccc(-c3ccoc3)cc2)nn1 (configuration not stated) this time
Data returned: 0

The values you see were collected from PubChem BioAssay AID602311.
